# System: PC9 cells (EGFR Exon 19 del, non-small cell lung cancer cells)
# METHOD SUMMARY: Cell viability assay (WST/CCK8), PC9 cells
# Assay type: cell-based
# STATED CONDITIONS: Homo sapiens, PC-9; Table 6, canertinib-based compounds; PC9 (Exon19 Del); 72 hours; WST; read-out: IC50 (half inhibitory concentration)
# Text: The cell lines with abnormal EGFR expression used are as follows: • HCC827 cells (EGFR Exon19 del, non-small cell lung cancer cells); • PC9 cells (EGFR Exon 19 del, non-small cell lung cancer cells); • PC9BracA1 (EGFR Exon 19 del+T790M, non-small cell lung cancer cells) • H1975 (EGFR Exon T790M+L858R mutation, non-small cell lung cancer cell line) • BT474 cells (HER2 positive breast cancer cells) […]
Measured IC50 of individual entries
Numeric only. Scale: µM

compound="C=CC(=O)Nc1cc2c(Nc3ccc(F)c(Cl)c3)ncnc2cc1OCCCN1CCN(C(=O)CCC(=O)NCCOCCNc2cccc3c2C(=O)N(C2CCC(=O)NC2=O)C3=O)CC1 (stereo not shown)" unit_spec=µM observed_result=0.0297

// returns reported IC50 for input C=CC(=O)Nc1cc2c(Nc3ccc(F)c(Cl)c3)ncnc2cc1OCCCN1CCN(CCCCC#CC2c3ccccc3C(=O)N2C2CCC(=O)NC2=O)CC1 (stereo not shown)
0.0293

Given the entry C=CC(=O)Nc1cc2c(Nc3ccc(F)c(Cl)c3)ncnc2cc1OCCCN1CCN(C(=O)CCOCCOCCNc2cccc3c2C(=O)N(C2CCC(=O)NC2=O)C3=O)CC1 (stereo not shown) , report its measured IC50.
0.0097

----------
# System: PC9 cells (EGFR Exon 19 del, non-small cell lung cancer cells)
# METHOD SUMMARY: Cell viability assay (WST/CCK8), PC9 cells
# Assay type: cell-based
# STATED CONDITIONS: Homo sapiens, PC-9; Table 6, canertinib-based compounds; PC9 (Exon19 Del); 72 hours; WST; read-out: IC50 (half inhibitory concentration)
ATTRIBUTE MEASURED: IC50
Please make sure the unit comes right after the number.

Below are worked cases with known answers.
molecule="C=CC(=O)Nc1cc2c(Nc3ccc(F)c(Cl)c3)ncnc2cc1OCCCN1CCC(N2CCN(C(=O)CCCCSc3cccc4c3CN(C3CCC(=O)NC3=O)C4=O)CC2)CC1 (stereo not shown)" observed_result="17 nM"
molecule="C=CC(=O)Nc1cc2c(Nc3ccc(F)c(Cl)c3)ncnc2cc1OCCCN1CCN(CCCCCCNc2cccc3c2C(=O)N(C2CCC(=O)NC2=O)C3=O)CC1 (stereo not shown)" observed_result="11.1 nM"
molecule="C=CC(=O)Nc1cc2c(Nc3ccc(F)c(Cl)c3)ncnc2cc1OCCCN1CCC(N2CCN(C(=O)CCCCCNc3cccc4c3C(=O)N(C3CCC(=O)NC3=O)C4=O)CC2)CC1 (stereo not shown)" observed_result="0.4 nM"

Name the reported IC50 value associated with the molecule C=CC(=O)Nc1cc2c(Nc3ccc(F)c(Cl)c3)ncnc2cc1OCCCN1CCN(C(=O)CCCCCNc2cccc3c2C(=O)N(C2CCC(=O)NC2=O)C3=O)CC1 (stereo not shown)
1.3 nM
